Where a name gives a salt, the structure may show the parent alone.
reported endpoint: melting point

CCN(C)Cc1cccc(CN(C)c2nc(=O)c3c(C)c(OC)c(OC)cc3[nH]2)c1 [Example 71] = 146.7 to 150.8 °C
CCNCCOc1cccc(CN(C)c2nc(=O)c3c(C)c(OC)c(OC)cc3[nH]2)c1 [Example 165] = 264.6 to 266.5 °C
COc1cc2[nH]c(N(C)Cc3cccc(N=C4CCCN4C)c3)nc(=O)c2c(OC)c1OC [Example G-39] = 130 to 133 °C
COc1cc2nc(N(C)Cc3cccc(/N=C(\C)N(C)C)c3)[nH]c(=O)c2c(C)c1OC (as salt: salt) [Example G-1] = 170.6 to 172.5 °C
COc1cc2[nH]c(N(C)Cc3cccc(/N=C/N(C)C)c3)nc(=O)c2c(C)c1OC [Example 196] = 185 to 186 °C

**Q:** Quick one: give measured melting point for COc1cc2[nH]c(N(C)Cc3cccc(N4C[C@@H](O)CC4=O)c3)nc(=O)c2c(C)c1OC [Example 27]
**A:** 230.8 to 232.5 °C

**Q:** Quick one: give measured melting point for COc1cc2[nH]c(N(C)Cc3cccc(/N=C(\C)N(C)C)c3)nc(=O)c2c(F)c1OC [Example 221]
**A:** 199.9 to 201.9 °C

* * *

- system under test: Alpha1A adrenoceptor (Homo sapiens)
- Construct: expressed in transfected cells; host or cells: CHO-K1
- Sequence (P35348 whole entry): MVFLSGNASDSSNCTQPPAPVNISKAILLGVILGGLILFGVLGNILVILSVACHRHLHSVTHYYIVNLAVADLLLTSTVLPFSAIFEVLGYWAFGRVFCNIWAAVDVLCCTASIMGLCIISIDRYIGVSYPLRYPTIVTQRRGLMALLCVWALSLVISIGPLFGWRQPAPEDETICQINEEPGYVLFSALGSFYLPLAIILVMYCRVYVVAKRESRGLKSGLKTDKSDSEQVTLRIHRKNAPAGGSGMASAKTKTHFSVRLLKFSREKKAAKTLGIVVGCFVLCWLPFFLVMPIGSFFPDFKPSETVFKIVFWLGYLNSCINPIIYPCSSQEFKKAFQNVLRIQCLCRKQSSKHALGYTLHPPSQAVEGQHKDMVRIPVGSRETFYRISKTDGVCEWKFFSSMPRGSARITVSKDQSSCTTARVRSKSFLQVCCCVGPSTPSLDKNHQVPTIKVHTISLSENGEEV
- measurement notes: [3H]prazosin binding (alpha1-adrenoceptor) assay, membranes of transfected CHO-K1 cells
- cond: transfected CHO-K1 cell membranes, read-out: pKi alpha 1A (converted)
reported endpoint: Ki (nM)

COc1cc2[nH]c(N(C)Cc3ccc4c(c3)CN(C)C4)nc(=O)c2c(C)c1OC = 3.24
COc1cc2[nH]c(NCc3cccc(N=C(C)N(C)C)c3)nc(=O)c2c(C)c1OC = 7.41
COc1cc2[nH]c(N(C)Cc3ccc(OCC(O)CO)cc3)nc(=O)c2c(C)c1OC (stereo not shown) = 7.08

A. CCN(C)Cc1ccc(CN(C)c2nc(=O)c3c(OC)c(OC)c(OC)cc3[nH]2)cc1
B. COc1cc2[nH]c(N(C)Cc3cccc(C4=NCCO4)c3)nc(=O)c2c(OC)c1OC
C. COc1cc2[nH]c(N(C)Cc3cccc(CN4CCC(OC)C4)c3)nc(=O)c2c(OC)c1OC (stereo not shown)
**Q:** // sort entries: Ki, high to low Labels, ranked as asked.
**A:** B, C, A
(B: 813 nM, C: 5.37 nM, A: 3.16 nM)

* * *

Where a name gives a salt, the structure may show the parent alone.
reported endpoint: melting point

Example compounds with recorded melting point:
COc1cc2[nH]c(N(C)Cc3cccc(NC(C)=N)c3)nc(=O)c2c(C)c1OC = 155 to 158 °C
COc1cc2[nH]c(N(C)Cc3cccc(NC(C)=O)c3)nc(=O)c2c(OC)c1OC (as salt: HCl) = 166.5 to 172.9 °C
COc1cc2[nH]c(N(C)Cc3cccc(C(C)N(C)C(=O)N(C)C)c3)nc(=O)c2c(C)c1OC (centres unmarked) = 125.9 to 128 °C
COc1cc2nc(N(C)Cc3cccc(OC[S+](C)[O-])c3)[nH]c(=O)c2c(C)c1OC (centres unmarked) = 191 to 193.5 °C

**Q:** Quick one: give measured melting point for COc1cc2[nH]c(N(C)Cc3cccc(N(C)CCCO)c3)nc(=O)c2c(OC)c1OC (as salt: HCl)
**A:** 156 to 157.2 °C

**Q:** Quick one: give measured melting point for `COc1cc2[nH]c(N(C)Cc3cccc(N4CCOC4=O)c3)nc(=O)c2c(OC)c1OC`
**A:** 226 to 229.5 °C

**Q:** Quick one: give measured melting point for `COc1cc2[nH]c(N(C)Cc3cccc(CC#N)c3)nc(=O)c2c(OC)c1OC`
**A:** 149.5 to 153.3 °C

**Q:** Quick one: give measured melting point for `COc1cc2[nH]c(N(C)Cc3cccc(C4=NCCO4)c3)nc(=O)c2c(OC)c1OC`
**A:** 202.3 to 203.4 °C

**Q:** Quick one: give measured melting point for `COc1cc2[nH]c(N(C)Cc3cccc(N=CN(C)C)c3)nc(=O)c2c(C)c1OC`
**A:** 185 to 186 °C

**Q:** Quick one: give measured melting point for `COc1cc2[nH]c(N(C)Cc3cccc(CN(C)S(C)(=O)=O)c3)nc(=O)c2c(C)c1OC`
**A:** 223.9 to 225.9 °C

**Q:** Quick one: give measured melting point for `COc1cc2[nH]c(N(C)Cc3cccc(Nc4nc(C)cc(Cl)n4)c3)nc(=O)c2c(OC)c1OC`
**A:** 191.3 to 192.8 °C

**Q:** Quick one: give measured melting point for `CCc1c(OC)c(OC)cc2[nH]c(N(C)Cc3cccc(N=C(C)N(C)C)c3)nc(=O)c12`
**A:** 224.6 to 225.5 °C

**Q:** Quick one: give measured melting point for COc1cc2[nH]c(N(C)Cc3cccc(N4CCC(OC)C4=O)c3)nc(=O)c2c(OC)c1OC (centres unmarked)
**A:** 90.2 to 94.7 °C

The reported measurements were obtained from patent US7244738B2.
